# method description: yeast display, Sf9 membrane polyspecificity reagent, FACS + sequencing; frameworks hold sequencing errors

sequence content	polyreactivity (PSR sort gate)
QVQLVESGGGLVQAGGSLRLSCAASGSTIYTYVMGWYIQAPGKERELVAAISWSGSSTYYADSVKGRCTISRDNAKNTVYLQINSLKPEDTAVYYCNAKYRRGWWGVEYGYWGQGTQVTVSS	low polyreactivity
QVQLVESGGGLVQAGGSLRLICAASGRIFWQYAMGWYRQAPGKERELVAAISRSGGSTYYADSVKGRFTISRDNAKNTVYLQMNSLKPEDTAVYYCAARKASGVPGSAGRPEYYYWGQGTQVTVSS	high polyreactivity
QVQLVESGGGLVQAGGSLRLSSAASGSIFYYNAMGWYRQAPGKEREFVAAISARGGSTYYADSVKGRFTISRDNAKNTVYLQMNSLKPEDTAVYYCAASWGLDTYSDSTYWGGYYYSGQGTQVTVSS	low polyreactivity
QLQLVESGGVLVQAGGSLRLSCAASGRTFSEYLQGCYRPPPGKERELVAASTRGGGGTYYADSVKGRFTISRDNAKNTVYFQMNSLKPEDTAVYYCAAGRRGSAGYYRQFGYGYWGQGTQVTVSS	high polyreactivity
